- System Name: human LAG3 expressed on cells (human) (UniProt P18627)
- Sequence (P18627 23-525): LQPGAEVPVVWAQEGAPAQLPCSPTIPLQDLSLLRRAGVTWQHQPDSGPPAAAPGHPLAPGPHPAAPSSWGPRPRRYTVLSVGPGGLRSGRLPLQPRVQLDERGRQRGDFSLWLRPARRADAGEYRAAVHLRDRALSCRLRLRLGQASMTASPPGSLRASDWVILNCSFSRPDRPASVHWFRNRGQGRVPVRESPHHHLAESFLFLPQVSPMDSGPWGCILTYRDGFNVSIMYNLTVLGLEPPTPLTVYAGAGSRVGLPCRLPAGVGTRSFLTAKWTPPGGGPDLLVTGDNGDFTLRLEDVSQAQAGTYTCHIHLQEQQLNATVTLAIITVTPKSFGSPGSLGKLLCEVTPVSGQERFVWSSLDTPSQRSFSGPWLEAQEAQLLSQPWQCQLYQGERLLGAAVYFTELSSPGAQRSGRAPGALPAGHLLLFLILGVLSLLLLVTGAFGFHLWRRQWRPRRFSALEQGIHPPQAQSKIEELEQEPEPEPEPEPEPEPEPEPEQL
- Assay Procedure: cell-based or functional assay
Parameter: IL-2, % of BMS, at 0.740740741 ug/mL. Scope: all listed entries.
Please respond with the number in % and leave the unit unwritten.

Binder	IL-2, % of BMS, at 0.740740741 ug/mL, %
sdAb fusion 25-2015-3 (Fc fusion, not shown: a dimerising Fc or GST) QLQLVESGGGLVQAGGSLRLSCAASGSIESFSFMGWYRQAPGKQRELVAGFTGAASLSFSTYTDAVKGRFTISRDNAKNTVYLQMNSLKPEDTAVYFCNVDPWSQSWPGRYWGQGTQVTVSSGGGGSGGGGSGGGGSQLQLVESGGGLAQTGGSLRLSCAAAGFTFDDTATGWFRQAPGKNREGVACISSSDGRIHYIDSAKGRFTISKDNAKKTVYLQMDSLKPEDTAVYYCAAARKGSTDCQGAIWGSWGQGTQVIVSSEPKSCDKTHTCPPCPAPELLG	59.3
sdAb fusion 25-27-2 (Fc fusion, not shown: a dimerising Fc or GST) QLQLVESGGGLVQAGGSLRLSCAASGSIESFSFMGWYRQAPGKQRELVAGFTGAASLSFSTYTDAVKGRFTISRDNAKNTVYLQMNSLKPEDTAVYFCNVDPWSQSWPGRYWGQGTQVTVSSGGGGSGGGGSQVQLVESGGGLVQPGGSLRLSCAASGFTLDYYAIGWFRQAPGKEREGVSCIRSSDGSTYYADSVKGRFTISSDNTKNTVYLQMNSLKPEDTAVYYCATDRYSDCRGPYENWGQGTQVTVSSEPKSCDKTHTCPPCPAPELLG	62

Which IL-2, % of BMS, at 0.740740741 ug/mL value belongs to sdAb fusion 25-17-2 (Fc fusion, not shown: a dimerising Fc or GST) QLQLVESGGGLVQAGGSLRLSCAASGSIESFSFMGWYRQAPGKQRELVAGFTGAASLSFSTYTDAVKGRFTISRDNAKNTVYLQMNSLKPEDTAVYFCNVDPWSQSWPGRYWGQGTQVTVSSGGGGSGGGGSQLQLVESGGGLVQPGGSLRLSCAASGLTLDGYAIGWFRQAPGKEREGLACISGSDGSTHYLDSVKGRFTISRDNGKNTMALQMNSLQFGDTAIYYCAARRGSCSGSWTYWGQGTQVTVSSEPKSCDKTHTCPPCPAPELLG ?
16.4
